Collected selectivity ratio values appear next to each entry.
Experiment: acute toxicity by oral administration to rats
Type: in vivo
Conditions: in vivo, po; quotient of LD50 and average anti-exudative ED35, rat, per os; read-out: Therapeutic ratio LD50/aver.ED35

[
  {
    "COMPOUND": "CC(CCO)c1ccc(-c2ccccc2)c(Cl)c1 (stereo not drawn)",
    "LIMIT QUALIFIER": ">",
    "selectivity ratio": 94.1
  },
  {
    "COMPOUND": "CC(CCOC(=O)c1ccncc1)c1ccc(-c2ccccc2)c(F)c1.Cl (stereo not drawn) [B, hydrochloride]",
    "LIMIT QUALIFIER": "=",
    "selectivity ratio": 92.7
  },
  {
    "COMPOUND": "CC(CCO)c1ccc(-c2ccccc2)c(F)c1 (stereo not drawn)",
    "LIMIT QUALIFIER": "=",
    "selectivity ratio": 64.7
  }
]

---

Experiment: acute toxicity by oral administration to rats
Format: in vivo
Conditions: in vivo, po; rat, per os as trituration in tylose, deaths within 14 days, Litchfield and Wilcoxon

[
  {
    "MOLECULE": "CC(CCOC(=O)c1ccncc1)c1ccc(-c2ccccc2)c(F)c1.Cl (stereo not drawn)",
    "LD50 at 336 h": "1530 mg/kg"
  },
  {
    "MOLECULE": "CC(CCO)c1ccc(-c2ccccc2)c(F)c1 (stereo not drawn)",
    "LD50 at 336 h": "825 mg/kg"
  },
  {
    "MOLECULE": "CC(CCO)c1ccc(-c2ccccc2)c(Cl)c1 (stereo not drawn)",
    "LD50 at 336 h": "> 1600 mg/kg"
  }
]

---

Test: in vivo
Conditions: rat, po
Property: TD50; scope: individual compounds

[
  {
    "COMPOUND": "CC(CCO)c1ccc(-c2ccccc2)c(Cl)c1 (stereo not drawn)",
    "TD50 (mg/kg)": 36.6
  },
  {
    "COMPOUND": "CC(CCO)c1ccc(-c2ccccc2)c(F)c1 (stereo not drawn)",
    "TD50 (mg/kg)": 30.5
  },
  {
    "COMPOUND": "CC(CCOC(=O)c1ccncc1)c1ccc(-c2ccccc2)c(F)c1.Cl (stereo not drawn)",
    "TD50 (mg/kg)": 61
  }
]

---

// values below are reported selectivity ratio
Assay: in vivo
Conditions: po, quotient of ulcerogenic ED50 and average antiexudative ED35, rat, per os, read-out: Therapeutic index: Ratio of ulcerogenic activity to antiexudative activity ED50/ED35
MEASUREMENT NAME: selectivity ratio

[
  {
    "COMPOUND": "CC(CCO)c1ccc(-c2ccccc2)c(F)c1 (stereo not drawn) [A, 3-(2-fluoro-4-biphenylyl)-1-butanol]",
    "MEASUREMENT NAME": "selectivity ratio",
    "ENDPOINT VALUE": 2.39
  },
  {
    "COMPOUND": "CC(CCOC(=O)c1ccncc1)c1ccc(-c2ccccc2)c(F)c1.Cl (stereo not drawn) [B, hydrochloride]",
    "MEASUREMENT NAME": "selectivity ratio",
    "ENDPOINT VALUE": 3.7
  },
  {
    "COMPOUND": "CC(CCO)c1ccc(-c2ccccc2)c(Cl)c1 (stereo not drawn) [C, 3-(2-chloro-4-biphenylyl)-1-butanol]",
    "MEASUREMENT NAME": "selectivity ratio",
    "ENDPOINT VALUE": 2.15
  }
]
